Biological target: recombinant human CYP11B1 (Homo sapiens, UniProt P15538)
Construct: made in house; host or cells: V79-4 cells (enzyme enriched microsomal fraction of cell lysates)
Sequence (P15538 25-503): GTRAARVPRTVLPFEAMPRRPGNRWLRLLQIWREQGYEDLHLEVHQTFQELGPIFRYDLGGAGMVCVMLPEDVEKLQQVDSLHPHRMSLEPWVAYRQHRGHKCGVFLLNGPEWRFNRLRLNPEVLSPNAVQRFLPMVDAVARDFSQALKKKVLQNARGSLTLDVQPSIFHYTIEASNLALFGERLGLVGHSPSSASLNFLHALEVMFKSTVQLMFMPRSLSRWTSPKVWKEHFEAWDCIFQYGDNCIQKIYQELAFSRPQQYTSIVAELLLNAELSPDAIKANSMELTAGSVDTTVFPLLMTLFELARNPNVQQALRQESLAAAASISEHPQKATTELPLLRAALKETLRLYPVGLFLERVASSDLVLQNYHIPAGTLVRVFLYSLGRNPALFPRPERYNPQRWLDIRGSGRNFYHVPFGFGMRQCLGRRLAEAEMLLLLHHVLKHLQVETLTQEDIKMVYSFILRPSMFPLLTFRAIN
Experiment: CYP11B1 enzyme assay, enzyme enriched microsomes from V79-4 cells, cortisol by LC-MS
Type: biochemical
Details: Table 3 comparison; read-out: CYP11B1 IC50
Property: IC50 (µM)
Number in µM, nothing else.

For orientation, consider the following solved cases.
[
  {
    "Molecule": "Fc1cc2nc(-c3cncnc3C(F)(F)F)n(C3CC3)c2cc1F [Example 30]",
    "Reading Unit": "µM",
    "Experimental Value": 6.37
  },
  {
    "Molecule": "Fc1cc2nc(-c3cncnc3C(F)F)n(C3CC3)c2cc1F [Example 27]",
    "Reading Unit": "µM",
    "Experimental Value": 4.72
  },
  {
    "Molecule": "Cc1ncncc1-c1nc2cc(F)c(F)cc2n1C1CC1 [Example 44]",
    "Reading Unit": "µM",
    "Experimental Value": 4.16
  }
]

As a next step, examine the molecule that follows.
QUERY: GET /values?readout=IC50&item= Fc1ccc2nc(-c3cncnc3)n(C3CC3)c2c1 [Example 1]
RESULT: 5.38

Data credit: patent US11919883B2
